Each item that follows carries a reported pIC50.
- STUDY_SYSTEM: TrkA (Homo sapiens, UniProt P04629)
- Construct: The kinase domain of the human TrkA receptor is expressed in Sf9 insect cells as a histidine (His)-fusion protein; His; made in house; host or cells: Sf9 insect cells (baculovirus)
- Sequence (P04629 510-781 limits assumed): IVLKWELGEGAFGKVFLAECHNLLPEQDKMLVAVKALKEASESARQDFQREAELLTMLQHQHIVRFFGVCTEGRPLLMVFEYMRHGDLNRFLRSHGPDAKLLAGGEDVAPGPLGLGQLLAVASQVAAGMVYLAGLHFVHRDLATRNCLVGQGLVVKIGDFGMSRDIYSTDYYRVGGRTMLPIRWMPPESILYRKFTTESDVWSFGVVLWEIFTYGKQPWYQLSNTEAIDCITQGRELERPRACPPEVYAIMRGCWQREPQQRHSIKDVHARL
- MEASUREMENT_PROTOCOL: TrkA tyrosine kinase inhibition assay (recombinant enzyme, polyGluTyr phosphorylation, 33P)
- Format: biochemical
- RUN_CONDITIONS: kinase domain of human TrkA, substrate PGT 0.1 mg/ml, 30 uM ATP, 1 hour at 30° C.
Remember, pIC50 is on a log scale: it is -log10 of the molar concentration.

Answered examples (3):
Retrieve pIC50 measured for C[C@H](Nc1nc(Nc2cc(C3CC3)[nH]n2)nn2cccc12)c1ccc(F)cc1 and print it. 9.52

Retrieve pIC50 measured for C[C@H](Nc1nc(Nc2cc(C3CC3)[nH]n2)nn2cccc12)C1CCCCC1 and print it. 8.70

Retrieve pIC50 measured for CC(C)[C@@H](CO)Nc1nc(Nc2cc(C3CC3)[nH]n2)nn2cccc12 and print it. 7.44

Here's the next entry for you.
Retrieve pIC50 measured for CCCC[C@H](C)Nc1nc(Nc2cc(C3CC3)[nH]n2)nn2cccc12 and print it. 9.30
